B1: BBSome complex member BBS1 (Homo sapiens), Q8NFJ9 (parent)
chain: MAAASSSDSDACGAESNEANSKWLDAHYDPMANIHTFSACLALADLHGDGEYKLVVGDLGPGGQQPRLKVLKGPLVMTESPLPALPAAAATFLMEQHEPRTPALALASGPCVYVYKNLRPYFKFSLPQLPPNPLEQDLWNQAKEDRIDPLTLKEMLESIRETAEEPLSIQSLRFLQLELSEMEAFVNQHKSNSIKRQTVITTMTTLKKNLADEDAVSCLVLGTENKELLVLDPEAFTILAKMSLPSVPVFLEVSGQFDVEFRLAAACRNGNIYILRRDSKHPKYCIELSAQPVGLIRVHKVLVVGSTQDSLHGFTHKGKKLWTVQMPAAILTMNLLEQHSRGLQAVMAGLANGEVRIYRDKALLNVIHTPDAVTSLCFGRYGREDNTLIMTTRGGGLIIKILKRTAVFVEGGSEVGPPPAQAMKLNVPRKTRLYVDQTLREREAGTAMHRAFQTDLYLLRLRAARAYLQALESSLSPLSTTAREPLKLHAVVQGLGPTFKLTLHLQNTSTTRPVLGLLVCFLYNEALYSLPRAFFKVPLLVPGLNYPLETFVESLSNKGISDIIKVLVLREGQSAPLLSAHVNMPGSEGLAAA
partner: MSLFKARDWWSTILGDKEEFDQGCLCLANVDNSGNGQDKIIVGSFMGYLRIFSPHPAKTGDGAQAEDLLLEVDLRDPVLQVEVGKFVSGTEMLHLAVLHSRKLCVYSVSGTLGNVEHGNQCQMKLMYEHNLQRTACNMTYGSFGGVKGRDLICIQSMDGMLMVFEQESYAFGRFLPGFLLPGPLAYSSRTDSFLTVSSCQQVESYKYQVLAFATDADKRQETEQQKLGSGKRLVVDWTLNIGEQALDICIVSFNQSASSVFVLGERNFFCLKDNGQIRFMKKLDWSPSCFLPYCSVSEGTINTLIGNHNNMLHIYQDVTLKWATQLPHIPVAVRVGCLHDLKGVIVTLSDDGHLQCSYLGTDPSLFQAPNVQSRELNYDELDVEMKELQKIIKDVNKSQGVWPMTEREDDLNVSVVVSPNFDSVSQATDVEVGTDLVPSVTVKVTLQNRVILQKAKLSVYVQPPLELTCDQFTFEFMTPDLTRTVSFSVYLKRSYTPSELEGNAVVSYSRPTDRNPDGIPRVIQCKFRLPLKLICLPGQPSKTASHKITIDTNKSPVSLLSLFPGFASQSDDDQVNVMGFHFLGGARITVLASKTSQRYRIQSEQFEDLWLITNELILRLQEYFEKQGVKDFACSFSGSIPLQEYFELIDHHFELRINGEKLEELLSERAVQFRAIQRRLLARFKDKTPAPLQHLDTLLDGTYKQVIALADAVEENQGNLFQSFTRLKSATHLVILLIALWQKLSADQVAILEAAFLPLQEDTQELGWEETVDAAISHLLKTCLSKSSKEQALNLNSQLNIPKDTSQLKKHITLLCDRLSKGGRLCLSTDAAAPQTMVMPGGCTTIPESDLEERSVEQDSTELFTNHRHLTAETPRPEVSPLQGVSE

Variants of: B1
condition_description: with pthb1_human BBS9, Q3SYG4
measured_property: effect of a mutation on the interaction

- N507E: with no effect
- I564A: with no effect
- R512H: with no effect
